- Assay System: Cytochrome P450 1B1 (Homo sapiens, UniProt Q16678)
- Sequence (Q16678 whole entry): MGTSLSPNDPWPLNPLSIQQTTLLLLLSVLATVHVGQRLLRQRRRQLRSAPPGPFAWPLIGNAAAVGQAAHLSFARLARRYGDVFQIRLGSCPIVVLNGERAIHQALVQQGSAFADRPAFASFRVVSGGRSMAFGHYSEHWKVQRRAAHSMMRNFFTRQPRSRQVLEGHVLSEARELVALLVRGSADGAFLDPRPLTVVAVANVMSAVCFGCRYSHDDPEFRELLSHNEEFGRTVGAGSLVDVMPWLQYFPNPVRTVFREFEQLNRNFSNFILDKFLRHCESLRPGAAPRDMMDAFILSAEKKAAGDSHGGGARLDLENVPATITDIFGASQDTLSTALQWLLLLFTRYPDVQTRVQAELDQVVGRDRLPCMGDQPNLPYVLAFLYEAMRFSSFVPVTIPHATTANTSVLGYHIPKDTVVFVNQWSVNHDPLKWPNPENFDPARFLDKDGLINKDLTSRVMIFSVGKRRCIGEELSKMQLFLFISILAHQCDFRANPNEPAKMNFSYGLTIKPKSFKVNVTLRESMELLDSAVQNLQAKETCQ
- Measurement Description: Inhibition of recombinant human CYP1B1 using 7-ethyl-0-resorufin as substrate incubated for 30 mins in presence of NADPH by EROD assay
pIC50: −log10 of the molar value.
Outcome Measure: pIC50

Compound	Result
c1ccc(-c2csc(-c3csc(Nc4ccc(N5CCOCC5)cc4)n3)n2)nc1	7.89
Fc1cc(Cl)ccc1-c1csc(-c2csc(Nc3ccc(N4CCOCC4)cc3)n2)n1	6.27
C#CCOc1ccccc1-c1csc(-c2csc(Nc3cccc(F)c3)n2)n1	7.65
c1csc(-c2csc(Nc3ccc4c(c3)OCO4)n2)n1	8.05
COc1cc(Nc2nc(-c3nc(-c4ccccc4Cl)cs3)cs2)cc(OC)c1	8.09
c1csc(-c2csc(Nc3ccc(N4CCOCC4)cc3)n2)n1	8.10
